# Tested on: 624824-186-R-J3-PDC multicell spheroids, viability;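 also: luminescent signal used as a stand-in for spheroid viability; spheroids exposed to agents for seven days before luminescence read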
# measurement_protocol: Anticancer human tumor 624824-186-R-J3-PDC patient-derived colon adenocarcinoma cell line growth inhibition [PI3K]; active = viability on the fitted dose curve at most 10% of control; inactive = the rest
# assay_conditions: second compound 0.1 µM; first compound 10 µM
// one of true = active, false = inactive, no free text

Incoming: Please let me know the test result on file for CC(Cn1ccc(-c2ccc(C#N)c(Cl)c2)n1)NC(=O)c1cc(C(C)O)[nH]n1 (stereo unspecified) + COc1c(OCCCN2CCOCC2)ccc2c3n(c(=NC(=O)c4cnc(N)nc4)nc12)CCN3 .
Outgoing: false

Incoming: Can you look up the reported call for CC(C)NCC(C(=O)N1CCN(c2ncnc3c2C(C)CC3O)CC1)c1ccc(Cl)cc1 (stereo unspecified) + Cc1nc(NC(=O)N2CCCC2C(N)=O)sc1-c1ccnc(C(C)(C)C(F)(F)F)c1 for me?
Outgoing: false

Incoming: Just curious, what result did C=CC(=O)N1CCN(c2nc(=O)n(-c3c(C)ccnc3C(C)C)c3nc(-c4c(O)cccc4F)c(F)cc23)C(C)C1 (stereo unspecified) + Cc1nc(NC(=O)N2CCCC2C(N)=O)sc1-c1ccnc(C(C)(C)C(F)(F)F)c1 get here?
Outgoing: false

Incoming: Give the logged outcome of this assay for the following molecule: CC(Cn1ccc(-c2ccc(C#N)c(Cl)c2)n1)NC(=O)c1cc(C(C)O)[nH]n1 (stereo unspecified) + CC(Nc1ncnc2nc[nH]c12)c1cc2cccc(Cl)c2c(=O)n1-c1ccccc1
Outgoing: false

Incoming: Please indicate how the test categorized CC(C)NCC(C(=O)N1CCN(c2ncnc3c2C(C)CC3O)CC1)c1ccc(Cl)cc1 (stereo unspecified) + CC(Nc1ccc2c(c1)OCCn1cc(N3C(=O)OCC3C(F)F)nc1-2)C(N)=O .
Outgoing: false

Incoming: Field: outcome | Entry: CCCS(=O)(=O)Nc1ccc(F)c(C(=O)c2c[nH]c3ncc(-c4ccc(Cl)cc4)cc23)c1F + COc1c(OCCCN2CCOCC2)ccc2c3n(c(=NC(=O)c4cnc(N)nc4)nc12)CCN3
Outgoing: false

Incoming: Called result for CCCS(=O)(=O)Nc1ccc(F)c(C(=O)c2c[nH]c3ncc(-c4ccc(Cl)cc4)cc23)c1F + Cc1nc(NC(=O)N2CCCC2C(N)=O)sc1-c1ccnc(C(C)(C)C(F)(F)F)c1
Outgoing: false

Incoming: Just curious, what result did CC1(C)CCC(Nc2ncc(C(F)(F)F)c(-c3c[nH]c4c(P(C)(C)=O)c(C#N)ccc34)n2)CN1 (stereo unspecified) + COc1c(OCCCN2CCOCC2)ccc2c3n(c(=NC(=O)c4cnc(N)nc4)nc12)CCN3 get here?
Outgoing: true

Incoming: Could you check what this test reported for Cn1ncc(Cl)c1-c1cc(C(=O)NC(CN)Cc2cccc(F)c2)sc1Cl (stereo unspecified) + COc1c(OCCCN2CCOCC2)ccc2c3n(c(=NC(=O)c4cnc(N)nc4)nc12)CCN3 ?
Outgoing: false

Incoming: For C#Cc1c(F)ccc2cc(O)cc(-c3ncc4c(N5CC6CCC(C5)N6)nc(OCC56CCCN5CC(F)C6)nc4c3F)c12 (stereo unspecified) + COc1c(OCCCN2CCOCC2)ccc2c3n(c(=NC(=O)c4cnc(N)nc4)nc12)CCN3 , which call appears in the assay record?
Outgoing: false

Incoming: What did this assay record as the result for CC(Cn1ccc(-c2ccc(C#N)c(Cl)c2)n1)NC(=O)c1cc(C(C)O)[nH]n1 (stereo unspecified) + CC(Nc1ccc2c(c1)OCCn1cc(N3C(=O)OCC3C(F)F)nc1-2)C(N)=O ?
Outgoing: false
